system: HepG2.2.15 cells; assay: Cytotoxicity determination in HepG2.2.15 cells (CCK-8); assay type: cell-based; conditions: 6 days of compound treatment, CCK-8, highest concentration 100 μM
ENDPOINT LABEL: CC50

**Q:** Report the value of CC50 obtained on HepG2.2.15 cells for COC(=O)C1=C(C2CCC(NS(C)(=O)=O)C2)NC(c2nccs2)=NC1c1cccc(F)c1Cl (single isomer, unassigned) [Compound 61G] .
**A:** > 10 µM

**Q:** Report the value of CC50 obtained on HepG2.2.15 cells for COC(=O)C1=C(C2CCN(S(=O)(=O)C3CC(C)(C(=O)O)C3)CC2)NC(c2nccs2)=NC1c1cccc(F)c1Br (stereo not drawn) [Compound 278C] .
**A:** 18.9 µM

**Q:** Report the value of CC50 obtained on HepG2.2.15 cells for COC(=O)C1=C(C2CCC(NS(C)(=O)=O)C2)NC(c2nccs2)=NC1c1cccc(F)c1Cl (single isomer, unassigned) [Compound 61B] .
**A:** > 20 µM

**Q:** Report the value of CC50 obtained on HepG2.2.15 cells for COC(=O)C1=C(C2CCN(S(=O)(=O)C3CCC(C)(C(=O)O)CC3)CC2)NC(c2nccs2)=NC1c1ccc(F)c(F)c1Cl (single isomer, unassigned) [Compound 210A] .
**A:** 6 µM

**Q:** Report the value of CC50 obtained on HepG2.2.15 cells for COC(=O)C1=C(C2CCC(NS(C)(=O)=O)C2)NC(c2nccs2)=NC1c1cccc(F)c1Cl (single isomer, unassigned) [Compound 61E] .
**A:** 21.7 µM

**Q:** Report the value of CC50 obtained on HepG2.2.15 cells for CCOC(=O)C1=C([C@@H]2CC[C@H](C(=O)O)OC2)NC(c2nccs2)=NC1c1ccc(F)cc1Cl (single isomer, unassigned) [Compound 265H] .
**A:** > 100 µM

---

tested on: HepG2.2.15 cells; experiment: Cytotoxicity determination in HepG2.2.15 cells (CCK-8); type: cell-based; settings: 6 days of compound treatment, CCK-8, highest concentration 100 μM
hey, just use Y if measured CC50 is less than 20 µM, otherwise N

**Q:** Lab log: compare recorded CC50 with 20 µM; is it strictly lower for COC(=O)C1=C(C2CCN(S(=O)(=O)C3CC(C)(C(=O)O)C3)CC2)NC(c2nccs2)=NC1c1ccc(F)cc1Br (single isomer, unassigned) [Compound 410C] ?
**A:** N

**Q:** Lab log: compare recorded CC50 with 20 µM; is it strictly lower for CCOC(=O)C1=C(C2CCN(S(=O)(=O)C3CC(C)(C(=O)O)C3)CC2)NC(c2nccs2)=NC1c1cccc(F)c1Cl (single isomer, unassigned) [Compound 321A] ?
**A:** Y

**Q:** Lab log: compare recorded CC50 with 20 µM; is it strictly lower for COC(=O)C1=C(C2CCCN(S(C)(=O)=O)CC2)NC(c2nccs2)=NC1c1ccc(F)cc1Cl (single isomer, unassigned) [Compound 383D] ?
**A:** N

**Q:** Lab log: compare recorded CC50 with 20 µM; is it strictly lower for COC(=O)C1=C(C23CC(N(C[C@@H](O)CO)S(C)(=O)=O)(C2)C3)NC(c2nccs2)=NC1c1ccc(F)cc1Cl (single isomer, unassigned) [Compound 376D] ?
**A:** N

**Q:** Lab log: compare recorded CC50 with 20 µM; is it strictly lower for CCCS(=O)(=O)N1CCC(C2=C(C(=O)OC)C(c3ccc(F)cc3Cl)N=C(c3nccs3)N2)C1 (single isomer, unassigned) [Compound 256D] ?
**A:** N

**Q:** Lab log: compare recorded CC50 with 20 µM; is it strictly lower for CCOC(=O)C1=C(C2CCN(S(=O)(=O)C3CC(C)(C(=O)O)C3)CC2)NC(c2nccs2)=NC1c1cccc(F)c1Cl (single isomer, unassigned) [Compound 321B] ?
**A:** Y

**Q:** Lab log: compare recorded CC50 with 20 µM; is it strictly lower for COC(=O)C1=C(C2CCCC(C(=O)O)CC2)NC(c2nccs2)=NC1c1ccc(F)cc1Cl (single isomer, unassigned) [Compound 95E] ?
**A:** N

**Q:** Lab log: compare recorded CC50 with 20 µM; is it strictly lower for COC(=O)C1=C(C2CCN(S(C)(=O)=O)CC2)NC(c2nccs2)=NC1c1ccc(F)cc1Br (single isomer, unassigned) [Compound 120B] ?
**A:** Y

**Q:** Lab log: compare recorded CC50 with 20 µM; is it strictly lower for COC(=O)C1=C(C2CCC(NC(C)=O)C2)NC(c2nccs2)=NC1c1ccc(F)c(F)c1Cl (single isomer, unassigned) [Compound 300G] ?
**A:** N

**Q:** Lab log: compare recorded CC50 with 20 µM; is it strictly lower for COC(=O)C1=C(C2CCN(S(C)(=N)=O)CC2)NC(c2nccs2)=NC1c1ccc(F)c(F)c1Cl (centres unmarked) [Compound 205B] ?
**A:** N

**Q:** Lab log: compare recorded CC50 with 20 µM; is it strictly lower for COC(=O)C1=C([C@H]2CC[C@H](NS(C)(=O)=O)CC2)NC(c2ncc(F)cc2F)=NC1c1ccc(F)c(F)c1Cl (some centres unmarked) [Compound 298B] ?
**A:** Y

**Q:** Lab log: compare recorded CC50 with 20 µM; is it strictly lower for COC(=O)C1=C([C@H]2CC[C@H](NS(C)(=N)=O)CC2)NC(c2nccs2)=NC1c1ccc(F)cc1Cl (single isomer, unassigned) [Compound 287D] ?
**A:** N

**Q:** Lab log: compare recorded CC50 with 20 µM; is it strictly lower for COC(=O)C1=C(C2CCN(S(=O)(=O)CC3(C)CCC(C(=O)O)CC3)CC2)NC(c2nccs2)=NC1c1ccc(F)cc1Cl (single isomer, unassigned) [Compound 450B] ?
**A:** Y

**Q:** Lab log: compare recorded CC50 with 20 µM; is it strictly lower for CCOC(=O)C1=C([C@H]2CC[C@H](C(=O)O)CO2)NC(c2nccs2)=NC1c1ccc(F)cc1Cl (single isomer, unassigned) [Compound 363H] ?
**A:** N

**Q:** Lab log: compare recorded CC50 with 20 µM; is it strictly lower for COC(=O)C1=C([C@H]2CCC[C@@H](CO)C2)NC(c2nccs2)=NC1c1ccc(F)cc1Cl (single isomer, unassigned) [Compound 173C] ?
**A:** Y

**Q:** Lab log: compare recorded CC50 with 20 µM; is it strictly lower for COC(=O)C1=C(C2CCN(S(=O)(=O)C3CC(C)(C(=O)OC)C3)CC2)NC(c2nccs2)=NC1c1ccc(F)c(F)c1Cl (single isomer, unassigned) [Compound 323C] ?
**A:** N

**Q:** Lab log: compare recorded CC50 with 20 µM; is it strictly lower for COC(=O)C1=C(C2CCN(S(=O)(=O)CC3(C)CCC(C(=O)O)CC3)CC2)NC(c2nccs2)=NC1c1ccc(F)c(F)c1Cl (single isomer, unassigned) [Compound 452B] ?
**A:** Y

**Q:** Lab log: compare recorded CC50 with 20 µM; is it strictly lower for CCOC(=O)C1=C(C2CCN(S(=O)(=O)C3CC(C)(C(=O)O)C3)CC2)NC(c2nccs2)=NC1c1cccc(F)c1C (single isomer, unassigned) [Compound 429C] ?
**A:** N

**Q:** Lab log: compare recorded CC50 with 20 µM; is it strictly lower for COC(=O)C1=C([C@H]2CC[C@H](NS(C)(=N)=O)CC2)NC(c2nccs2)=NC1c1ccc(F)cc1Cl (single isomer, unassigned) [Compound 287B] ?
**A:** N

**Q:** Lab log: compare recorded CC50 with 20 µM; is it strictly lower for COC(=O)C1=C(C2CCCOC2)NC(c2nccs2)=NC1c1ccc(F)cc1Cl (single isomer, unassigned) [Compound 48D] ?
**A:** N

**Q:** Lab log: compare recorded CC50 with 20 µM; is it strictly lower for COC(=O)C1=C(C2CCN(S(=O)(=O)CC(=O)O)C2)NC(c2nccs2)=NC1c1ccc(F)cc1Cl (single isomer, unassigned) [Compound 214C] ?
**A:** N

**Q:** Lab log: compare recorded CC50 with 20 µM; is it strictly lower for CCOC(=O)C1=C(C2CCN(S(=O)(=O)CC3CC(C(=O)O)C3)CC2)NC(c2nccs2)=NC1c1ccc(F)c(F)c1Cl (centres unmarked) [Compound 480Y] ?
**A:** Y

---

Exercise: for every item that follows, state its recorded log10 CC50 at 6 days.
assay: Cytotoxicity determination in HepG2.2.15 cells (CCK-8); assay type: cell-based; settings: human, 6 days of compound treatment, CCK-8, highest concentration 100 μM
Each number you see is log10 of CC50 at 6 days, and the unit inside the log is µM.

**Q:** Provide one value: measured log10 CC50 at 6 days of CNS(=O)(=O)[C@H]1CC[C@H](C2=C(C(=O)OC)C(c3ccc(F)c(F)c3Cl)N=C(c3c(F)cc(F)cc3F)N2)CC1 (single isomer, unassigned) [Compound 167A]
**A:** 1.06

**Q:** Provide one value: measured log10 CC50 at 6 days of COC(=O)C1=C(C2CCN(S(=O)(=O)C3CC3)CC2)NC(c2nccs2)=NC1c1ccc(F)cc1Cl (stereo not drawn)
**A:** 0.86

**Q:** Provide one value: measured log10 CC50 at 6 days of COC(=O)C1=C(C2C[C@@H]3CN(S(C)(=O)=O)C[C@@H]3C2)NC(c2nccs2)=NC1c1ccc(F)cc1Cl (single isomer, unassigned) [Compound 176A]
**A:** 1.30

**Q:** Provide one value: measured log10 CC50 at 6 days of COCCOCCOCCS(=O)(=O)N1CCC(C2=C(C(=O)OC)C(c3ccc(F)cc3Cl)N=C(c3nccs3)N2)CC1 (stereo not drawn)
**A:** 1.97

**Q:** Provide one value: measured log10 CC50 at 6 days of CCOC(=O)C1=C([C@H]2CC[C@H](C(=O)O)CC2)NC(c2nccs2)=NC1c1ccc(F)cc1Cl (single isomer, unassigned)
**A:** 1.00

**Q:** Provide one value: measured log10 CC50 at 6 days of COCCS(=O)(=O)N1CCC(C2=C(C(=O)OC)C(c3ccc(F)cc3Cl)N=C(c3nccs3)N2)C1 (single isomer, unassigned)
**A:** 1.34

**Q:** Provide one value: measured log10 CC50 at 6 days of CCOC(=O)C1=C([C@@H]2CCC[C@H](C(=O)O)CC2)NC(c2nccs2)=NC1c1ccc(F)c(F)c1Cl (relative stereo) [Compound 302C]
**A:** 1.01

**Q:** Provide one value: measured log10 CC50 at 6 days of COC(=O)C1=C(C2CN(S(C)(=O)=O)C2)NC(c2nccs2)=NC1c1ccc(F)cc1Cl (single isomer, unassigned) [Compound 84A]
**A:** 1.46

**Q:** Provide one value: measured log10 CC50 at 6 days of CCOC(=O)C1=C([C@@H]2C[C@H]2CC(=O)O)NC(c2nccs2)=NC1c1ccc(F)cc1Cl (single isomer, unassigned)
**A:** 2.00

**Q:** Provide one value: measured log10 CC50 at 6 days of COC(=O)C1=C(C2CCN(S(=O)(=O)[C@H]3CC[C@@H](CC(=O)O)CC3)CC2)NC(c2nccs2)=NC1c1ccc(F)cc1Cl (relative stereo) [Compound 476B]
**A:** 1.48

**Q:** Provide one value: measured log10 CC50 at 6 days of CCOC(=O)C1=C(C2CCN(S(=O)(=O)[C@H]3C[C@@H](C(=O)O)C3)CC2)NC(c2nccs2)=NC1c1cccc(F)c1Br (relative stereo) [Compound 339D]
**A:** 1.51
